# assay: Degradation of CNDAC at 7.5 pH in Tris-degrees C
# Format: ADME
# study.conditions: Tris buffer, pH 7.5
observation.type: half-life
Kindly format the answer as number then unit.

Which measured half-life value corresponds to N#C[C@H]1[C@H](O)[C@@H](CO)O[C@H]1n1ccc(N)nc1=O (stereo in doubt; form 1) ?
38 h

###

# Tested on: SBC-5
# assay: In Vitro cell growth inhibitory activity of CNDAC against Small Cell Lung Carcinoma-5 (2.5*10e2) cells on 20-min exposure
# Assay type: functional, cell-based
# study.conditions: Homo sapiens, SBC-5, 20 min
observation.type: IC50 (µM)
Give bare numbers, in µM.

N#C[C@H]1[C@H](O)[C@@H](CO)O[C@H]1n1ccc(N)nc1=O (stereo in doubt; form 2) [TAS-109] | 7.14

Consider the record given below.
Give SBC-5 IC50 for N#C[C@H]1[C@H](O)[C@@H](CO)O[C@H]1n1ccc(N)nc1=O (stereo in doubt; form 1) [TAS-109]
7.14

###

# assay: Degradation of CNDAC at 1 M concentration in Tris-degrees C
# Assay type: ADME
# study.conditions: Tris buffer
observation.type: half-life
Entry format: amount then unit.

Form field: reported half-life of N#C[C@H]1[C@H](O)[C@@H](CO)O[C@H]1n1ccc(N)nc1=O (stereo in doubt; form 1)
21 min

###

# Test system: WiDr
# assay: In Vitro cell growth inhibitory activity of CNDAC against Human Colon Carcinoma WiDr 5*10e2 cells on 48-h exposure
# Assay type: functional, cell-based
# study.conditions: widr
observation.type: pIC50
One number for each entry, as −log10 of the molar value.

What value of pIC50 has been reported for the following compound? N#C[C@H]1[C@H](O)[C@@H](CO)O[C@H]1n1ccc(N)nc1=O (stereo in doubt; form 2)
6.51

###

# Test system: MKN-74
# assay: In Vitro cell growth inhibitory activity of CNDAC Stomach Carcinoma MKN-74 (1*10e3) cell lines on 20-min exposure
# Format: functional, cell-based, Homo sapiens
observation.type: pIC50
Give bare numbers, as −log10 of the molar value.

N#C[C@H]1[C@H](O)[C@@H](CO)O[C@H]1n1ccc(N)nc1=O (stereo in doubt; form 1) [TAS-109] | 4.60

Give its pIC50 value. Item: N#C[C@H]1[C@H](O)[C@@H](CO)O[C@H]1n1ccc(N)nc1=O (stereo in doubt; form 2) [TAS-109]
3.58

###

# assay: Degradation of CNDAC at 9 pH in Tris-degrees C
# Format: ADME
# study.conditions: Tris buffer, pH 9
observation.type: half-life (h)
Answers are plain numbers, in h.

Given the entry N#C[C@H]1[C@H](O)[C@@H](CO)O[C@H]1n1ccc(N)nc1=O (stereo in doubt; form 1) [TAS-109] , report its measured half-life.
1

###

# Tested on: MKN-74
# assay: In Vitro cell growth inhibitory activity of CNDAC Stomach Carcinoma MKN-74 (1*10e3) cell lines on 48-h exposure
# Assay type: functional, cell-based, Homo sapiens
# study.conditions: mkn-74
observation.type: IC50

What does the data say about its IC50? Entry: N#C[C@H]1[C@H](O)[C@@H](CO)O[C@H]1n1ccc(N)nc1=O (stereo in doubt; form 2) [TAS-109]
206 nM

###

# assay: Degradation of CNDAC at 8 pH in Tris-degrees C
# Type: ADME
# study.conditions: Tris buffer, pH 8
observation.type: half-life (h)
Answers are plain numbers, in h.

// half-life lookup, key: N#C[C@H]1[C@H](O)[C@@H](CO)O[C@H]1n1ccc(N)nc1=O (stereo in doubt; form 1)
4

###

# assay: Degradation of CNDAC at 0.01 M concentration in Tris-degrees C
# Type: ADME
# study.conditions: Tris buffer
observation.type: half-life (h)
Numbers only, in h.

Suppose we examine the molecule N#C[C@H]1[C@H](O)[C@@H](CO)O[C@H]1n1ccc(N)nc1=O (stereo in doubt; form 1) ; what half-life value has been reported?
1

###

# assay: Degradation of CNDAC at 0.1 M concentration in Tris-degrees C
# Type: ADME
# study.conditions: Tris buffer
observation.type: half-life (min)
Numbers only, in min.

I have this compound here, N#C[C@H]1[C@H](O)[C@@H](CO)O[C@H]1n1ccc(N)nc1=O (stereo in doubt; form 1) [TAS-109] , and I need its recorded half-life.
30

The measured values listed here are drawn from ChEMBL document CHEMBL1128606.
